Would you kindly list Binding Activity on ET Receptor (R. act.) ETA for each of these compounds?
molecular target: endothelin receptor A (ETA) (Sus scrofa, UniProt Q29010); construct: A membrane fraction prepared from the porcine heart; from tissue; host or cells: porcine heart membrane fraction; assay: Assay of affinity for receptor (1): binding activity on ETA receptor, 125I-labeled endothelin-1, porcine heart membrane fraction; parameters: key: relative specific activity; reference cyclic pentapeptide ETA binding = 1.0; details: specific activity, taking the binding activity of control cyclo[-D-Glu-Ala-D-aIle-Leu-D-Trp-] on receptor A as 1.0, 25°C, 1 hour
Sequence (Q29010 21-427): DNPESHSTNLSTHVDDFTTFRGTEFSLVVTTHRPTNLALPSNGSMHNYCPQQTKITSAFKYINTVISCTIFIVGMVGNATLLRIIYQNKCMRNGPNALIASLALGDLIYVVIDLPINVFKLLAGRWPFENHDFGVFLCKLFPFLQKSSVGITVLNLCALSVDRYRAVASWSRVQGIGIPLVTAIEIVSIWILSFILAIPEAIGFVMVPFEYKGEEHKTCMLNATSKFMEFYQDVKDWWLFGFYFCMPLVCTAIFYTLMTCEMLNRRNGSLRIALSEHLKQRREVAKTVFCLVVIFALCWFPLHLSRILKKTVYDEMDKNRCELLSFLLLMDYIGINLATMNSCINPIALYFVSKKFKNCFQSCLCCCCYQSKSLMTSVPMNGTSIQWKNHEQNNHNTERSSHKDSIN
Non-standard residues stand in square brackets, D forms with d. Residues, ends and D or L forms follow the SMILES beside them.
Numbers only.

>>> test_value("CC(C)C[C@@H]1NC(=O)[C@@H](CC(C)C)NC(=O)[C@@H]2CCCN2C(=O)[C@H](CC(=O)O)NC(=O)[C@@H](CC(=O)O)NC(=O)[C@@H](Cc2c[nH]c3ccccc23)NC1=O [Example 30, Cyclo[-D-Asp-Asp-Pro-D-Leu-Leu-D-Trp-]] (cyclo(DP[dL]L[dW][dD]))")
4.4

Returns the measured Binding Activity on ET Receptor (R. act.) ETA for the input compound. Input: CC(C)C[C@@H]1NC(=O)[C@@H](CC(C)C)NC(=O)[C@H](C)NC(=O)[C@@H](CC(=O)O)NC(=O)[C@@H](CC(=O)O)NC(=O)[C@@H](Cc2c[nH]c3ccccc23)NC1=O [Example 27, Cyclo[-D-Asp-D-Asp-Ala-D-Leu-Leu-D-Trp-]] (cyclo(A[dL]L[dW][dD][dD]))
5.7
